# Experiment notes: Systemic availability of mexiletine in the dog from mexiletine prodrugs (oral gavage)
# Assay type: in vivo
# Condition context: 1 mg/kg mexiletine free base, plasma mexiletine
Marks after values point to notes of the source that are not given here.
Would you mind telling me the reported T50% Cmax of each entry?

Request: // lookup T50% Cmax for Cc1cccc(C)c1OCC(C)NC(=O)[C@@H](N)CCCCN.O=C(O)C(F)(F)F.O=C(O)C(F)(F)F (mixture of isomers) [Mexiletine (S)-lysine amide]
Result: 5.0** h

Request: // lookup T50% Cmax for Cc1cccc(C)c1OCC(C)NC(=O)[C@@H](N)Cc1ccccc1.Cl (stereo partly drawn) [Mexiletine phenylalanine amide]
Result: 3.5** h

Request: // lookup T50% Cmax for Cc1cccc(C)c1OCC(C)NC(=O)C(N)CCCNC(N)=O (stereo not drawn) [Mexiletine citrulline amide]
Result: 3.0** h

The origin of these recorded values is patent US20120196933A1.
